# target_under_test: CYP2A6 (Homo sapiens)
# Sequence (P11509 whole entry): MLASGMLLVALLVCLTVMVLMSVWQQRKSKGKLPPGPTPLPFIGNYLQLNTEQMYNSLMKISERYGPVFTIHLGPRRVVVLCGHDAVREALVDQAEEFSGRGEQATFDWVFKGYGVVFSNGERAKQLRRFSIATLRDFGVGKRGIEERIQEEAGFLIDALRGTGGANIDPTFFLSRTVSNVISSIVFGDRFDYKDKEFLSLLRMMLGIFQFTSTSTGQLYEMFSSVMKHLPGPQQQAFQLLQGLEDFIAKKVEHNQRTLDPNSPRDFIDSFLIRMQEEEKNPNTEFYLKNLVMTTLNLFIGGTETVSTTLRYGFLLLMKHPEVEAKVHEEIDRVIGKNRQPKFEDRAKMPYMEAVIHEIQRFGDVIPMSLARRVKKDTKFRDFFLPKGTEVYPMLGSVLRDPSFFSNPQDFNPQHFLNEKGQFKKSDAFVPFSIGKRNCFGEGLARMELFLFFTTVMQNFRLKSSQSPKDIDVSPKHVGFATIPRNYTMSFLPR
# assay_overview: CYP2A6 coumarin 7-hydroxylase inhibition in ultrapooled human liver microsomes
# conditions_used: read-out: IC50 Without NADPH Preincubation, CYP2A6 coumarin 7-hydroxylase; ultrapooled human liver microsomes, without NADPH preincubation
readout_kind: IC50

What value of IC50 has been reported for the following compound? CCCCCn1nc(C(=O)N[C@H](C(N)=O)C(C)C)c2ccccc21 > 100 µM

====

# target_under_test: CYP2C19 (Homo sapiens, UniProt P33261)
# Sequence (P33261 whole entry): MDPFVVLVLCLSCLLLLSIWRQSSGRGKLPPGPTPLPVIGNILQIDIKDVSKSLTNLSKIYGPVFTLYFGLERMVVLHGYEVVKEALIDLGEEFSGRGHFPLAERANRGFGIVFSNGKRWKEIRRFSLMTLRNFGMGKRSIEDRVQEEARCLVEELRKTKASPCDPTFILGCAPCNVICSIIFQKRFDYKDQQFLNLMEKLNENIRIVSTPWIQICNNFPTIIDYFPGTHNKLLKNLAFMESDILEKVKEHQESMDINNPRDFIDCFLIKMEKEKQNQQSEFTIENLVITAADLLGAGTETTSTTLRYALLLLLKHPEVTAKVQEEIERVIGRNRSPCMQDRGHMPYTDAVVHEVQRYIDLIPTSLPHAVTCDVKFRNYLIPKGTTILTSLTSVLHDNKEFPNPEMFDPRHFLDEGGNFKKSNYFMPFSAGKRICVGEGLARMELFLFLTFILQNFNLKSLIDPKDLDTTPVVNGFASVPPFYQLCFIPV
# assay_overview: CYP2C19 [S]-mephenytoin 4'-hydroxylase inhibition in ultrapooled human liver microsomes
# conditions_used: IC50 Without NADPH Preincubation, CYP2C19 [S]-mephenytoin 4'-hydroxylase, ultrapooled human liver microsomes, without NADPH preincubation
readout_kind: IC50 (µM)
Numbers only here, please. The scale is µM.

What value of IC50 has been reported for the following compound? CCCCCn1nc(C(=O)N[C@H](C(N)=O)C(C)C)c2ccccc21 [AB-PINACA] 20

====

# target_under_test: CYP1A2 (Homo sapiens)
# Sequence (P05177 whole entry): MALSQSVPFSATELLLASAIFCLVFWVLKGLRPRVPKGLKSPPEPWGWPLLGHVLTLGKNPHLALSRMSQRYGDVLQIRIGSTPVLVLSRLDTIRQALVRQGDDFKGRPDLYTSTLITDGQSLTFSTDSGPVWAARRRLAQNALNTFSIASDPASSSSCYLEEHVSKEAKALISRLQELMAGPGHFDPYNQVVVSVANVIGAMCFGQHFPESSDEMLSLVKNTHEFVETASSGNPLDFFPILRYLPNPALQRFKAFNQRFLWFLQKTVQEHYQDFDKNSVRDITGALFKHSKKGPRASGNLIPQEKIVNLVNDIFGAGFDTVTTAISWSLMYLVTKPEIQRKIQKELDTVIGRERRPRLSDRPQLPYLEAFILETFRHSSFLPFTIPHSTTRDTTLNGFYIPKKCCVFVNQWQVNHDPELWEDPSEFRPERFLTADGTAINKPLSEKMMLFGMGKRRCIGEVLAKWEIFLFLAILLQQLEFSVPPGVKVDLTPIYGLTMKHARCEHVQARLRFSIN
# assay_overview: CYP1A2 phenacetin O-deethylase inhibition in ultrapooled human liver microsomes
readout_kind: IC50

What value of IC50 has been reported for the following compound? CCCCCn1nc(C(=O)N[C@H](C(N)=O)C(C)C)c2ccccc21 [AB-PINACA] > 100 µM

====

# target_under_test: CYP3A4 (Homo sapiens)
# assay_overview: CYP3A4 midazolam 1'-hydroxylase inhibition and inactivation kinetics in ultrapooled human liver microsomes
# conditions_used: IC50 With NADPH Preincubation, CYP3A4 midazolam 1'-hydroxylase, ultrapooled human liver microsomes, 30-min preincubation with NADPH
readout_kind: pIC50
To interpret pIC50, take it as minus log10 of a concentration measured in moles per litre.

What value of pIC50 has been reported for the following compound? CCCCCn1nc(C(=O)N[C@H](C(N)=O)C(C)C)c2ccccc21 [AB-PINACA] 4.61

====

# target_under_test: CYP2D6 (Homo sapiens)
# Sequence (P10635 whole entry): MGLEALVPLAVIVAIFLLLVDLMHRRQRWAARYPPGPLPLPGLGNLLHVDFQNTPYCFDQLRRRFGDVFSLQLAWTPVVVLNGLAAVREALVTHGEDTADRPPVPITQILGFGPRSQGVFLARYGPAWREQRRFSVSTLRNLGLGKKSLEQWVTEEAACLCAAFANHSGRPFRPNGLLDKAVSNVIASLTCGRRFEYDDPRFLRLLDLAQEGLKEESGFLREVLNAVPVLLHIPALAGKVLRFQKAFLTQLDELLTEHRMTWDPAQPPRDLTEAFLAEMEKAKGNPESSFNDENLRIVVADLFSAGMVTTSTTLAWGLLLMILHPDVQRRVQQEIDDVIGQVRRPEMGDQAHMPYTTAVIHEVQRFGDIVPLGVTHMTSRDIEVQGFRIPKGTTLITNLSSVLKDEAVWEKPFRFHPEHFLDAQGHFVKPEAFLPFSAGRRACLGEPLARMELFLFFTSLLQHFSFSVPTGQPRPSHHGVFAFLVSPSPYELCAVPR
# assay_overview: CYP2D6 bufuralol 1'-hydroxylase inhibition in ultrapooled human liver microsomes
readout_kind: IC50

What value of IC50 has been reported for the following compound? CCCCCn1nc(C(=O)N[C@H](C(N)=O)C(C)C)c2ccccc21 [AB-PINACA] > 100 µM

====

# target_under_test: UGT1A4 (Homo sapiens)
# Sequence (P22310 29-534): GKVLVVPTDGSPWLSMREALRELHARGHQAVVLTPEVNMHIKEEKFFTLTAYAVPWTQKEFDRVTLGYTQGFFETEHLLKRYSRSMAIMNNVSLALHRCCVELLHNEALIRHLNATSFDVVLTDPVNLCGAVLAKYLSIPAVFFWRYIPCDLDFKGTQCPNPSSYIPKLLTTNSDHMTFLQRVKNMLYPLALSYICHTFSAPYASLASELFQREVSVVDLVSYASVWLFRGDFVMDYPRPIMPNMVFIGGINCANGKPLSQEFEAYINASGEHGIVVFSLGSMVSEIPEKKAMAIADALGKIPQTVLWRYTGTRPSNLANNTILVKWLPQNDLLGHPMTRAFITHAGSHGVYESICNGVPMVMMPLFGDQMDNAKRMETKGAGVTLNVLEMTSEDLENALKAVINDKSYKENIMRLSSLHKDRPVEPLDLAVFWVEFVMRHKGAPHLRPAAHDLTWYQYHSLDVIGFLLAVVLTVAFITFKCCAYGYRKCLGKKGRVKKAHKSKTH
# assay_overview: UGT1A4 trifluoperazine N-glucuronidation inhibition in ultrapooled human liver microsomes
pIC50: −log10 of the molar value.
readout_kind: pIC50

What value of pIC50 has been reported for the following compound? CCCCCn1nc(C(=O)N[C@H](C(N)=O)C(C)C)c2ccccc21 < 4.00

====

# target_under_test: CYP3A4 (Homo sapiens, UniProt P08684)
# Sequence (P08684 whole entry): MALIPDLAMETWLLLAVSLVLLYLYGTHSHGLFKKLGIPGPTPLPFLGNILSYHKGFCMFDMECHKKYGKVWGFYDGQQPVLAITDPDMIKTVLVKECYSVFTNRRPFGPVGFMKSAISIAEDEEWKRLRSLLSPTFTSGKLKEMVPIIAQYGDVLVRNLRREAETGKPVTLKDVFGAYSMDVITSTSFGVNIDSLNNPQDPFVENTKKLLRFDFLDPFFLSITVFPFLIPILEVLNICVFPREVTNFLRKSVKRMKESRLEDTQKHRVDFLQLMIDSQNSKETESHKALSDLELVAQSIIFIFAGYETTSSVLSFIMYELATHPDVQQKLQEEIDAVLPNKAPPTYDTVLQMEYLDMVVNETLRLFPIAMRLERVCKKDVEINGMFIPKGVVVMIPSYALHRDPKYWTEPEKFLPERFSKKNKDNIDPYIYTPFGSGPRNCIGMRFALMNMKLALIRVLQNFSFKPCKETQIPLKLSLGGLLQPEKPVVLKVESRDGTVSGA
# assay_overview: CYP3A4 midazolam 1'-hydroxylase inhibition and inactivation kinetics in ultrapooled human liver microsomes
# conditions_used: IC50 Without NADPH Preincubation, CYP3A4 midazolam 1'-hydroxylase, ultrapooled human liver microsomes, without NADPH preincubation
readout_kind: pIC50
To interpret pIC50, take it as minus log10 of a concentration measured in moles per litre.

What value of pIC50 has been reported for the following compound? CCCCCn1nc(C(=O)N[C@H](C(N)=O)C(C)C)c2ccccc21 [AB-PINACA] 4.18

====

# target_under_test: UniProtKB P08684
readout_kind: pKi
To interpret pKi, take it as minus log10 of a concentration measured in moles per litre.

What value of pKi has been reported for the following molecule? CCCCCn1nc(C(=O)N[C@H](C(N)=O)C(C)C)c2ccccc21 4.75

====

# target_under_test: CYP2C8 (Homo sapiens, UniProt P10632)
# Sequence (P10632 whole entry): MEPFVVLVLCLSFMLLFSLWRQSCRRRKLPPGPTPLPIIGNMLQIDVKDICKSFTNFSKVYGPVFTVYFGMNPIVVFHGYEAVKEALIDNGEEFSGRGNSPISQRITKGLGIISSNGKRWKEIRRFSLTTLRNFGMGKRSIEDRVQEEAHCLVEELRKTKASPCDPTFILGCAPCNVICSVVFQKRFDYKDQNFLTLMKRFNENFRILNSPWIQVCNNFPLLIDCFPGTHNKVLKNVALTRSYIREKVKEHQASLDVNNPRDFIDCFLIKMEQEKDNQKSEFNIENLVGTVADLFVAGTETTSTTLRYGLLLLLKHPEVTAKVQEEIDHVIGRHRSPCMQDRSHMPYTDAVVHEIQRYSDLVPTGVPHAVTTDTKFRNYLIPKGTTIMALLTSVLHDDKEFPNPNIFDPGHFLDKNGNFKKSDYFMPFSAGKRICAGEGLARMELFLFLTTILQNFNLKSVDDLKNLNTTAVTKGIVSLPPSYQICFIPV
# assay_overview: CYP2C8 amodiaquine N-deethylase inhibition in ultrapooled human liver microsomes
readout_kind: Ki (µM)
Numbers only here, please. The scale is µM.

What value of Ki has been reported for the following compound? CCCCCn1nc(C(=O)N[C@H](C(N)=O)C(C)C)c2ccccc21 [AB-PINACA] 16.9

====

# target_under_test: CYP2C19 (Homo sapiens, UniProt P33261)
# assay_overview: CYP2C19 [S]-mephenytoin 4'-hydroxylase inhibition in ultrapooled human liver microsomes
# conditions_used: IC50 With NADPH Preincubation, CYP2C19 [S]-mephenytoin 4'-hydroxylase, ultrapooled human liver microsomes, 30-min preincubation with NADPH
readout_kind: pIC50
To interpret pIC50, take it as minus log10 of a concentration measured in moles per litre.

What value of pIC50 has been reported for the following molecule? CCCCCn1nc(C(=O)N[C@H](C(N)=O)C(C)C)c2ccccc21 4.64

====

# target_under_test: CYP2C19 (Homo sapiens)
# assay_overview: CYP2C19 [S]-mephenytoin 4'-hydroxylase inhibition in ultrapooled human liver microsomes
# conditions_used: human, liver microsomes, pH 7.4, probe [S]-mephenytoin
readout_kind: IC50 shift at 15 min
Lab note: record just the number, no unit beside it.

What value of IC50 shift at 15 min has been reported for the following compound? CCCCCn1nc(C(=O)N[C@H](C(N)=O)C(C)C)c2ccccc21 0.9

====

# target_under_test: UGT1A1 (Homo sapiens, UniProt P22309)
# Sequence (P22309 26-533): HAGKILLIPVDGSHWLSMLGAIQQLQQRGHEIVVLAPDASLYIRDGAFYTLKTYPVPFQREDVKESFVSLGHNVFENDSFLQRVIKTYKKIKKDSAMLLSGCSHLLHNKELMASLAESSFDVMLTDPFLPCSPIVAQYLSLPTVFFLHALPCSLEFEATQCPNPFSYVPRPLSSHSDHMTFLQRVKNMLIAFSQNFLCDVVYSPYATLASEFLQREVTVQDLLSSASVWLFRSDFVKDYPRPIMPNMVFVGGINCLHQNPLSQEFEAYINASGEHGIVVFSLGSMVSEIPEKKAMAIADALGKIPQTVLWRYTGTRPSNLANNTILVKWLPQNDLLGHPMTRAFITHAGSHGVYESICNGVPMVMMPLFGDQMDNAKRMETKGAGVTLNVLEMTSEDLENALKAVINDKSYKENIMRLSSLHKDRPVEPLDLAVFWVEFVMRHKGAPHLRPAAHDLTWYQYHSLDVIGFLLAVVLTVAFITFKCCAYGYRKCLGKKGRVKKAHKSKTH
pIC50: −log10 of the molar value.
readout_kind: pIC50

What value of pIC50 has been reported for the following compound? CCCCCn1nc(C(=O)N[C@H](C(N)=O)C(C)C)c2ccccc21 [AB-PINACA] < 4.00

====

# target_under_test: OAT3 (Homo sapiens, UniProt Q8TCC7)
# Sequence (Q8TCC7 whole entry): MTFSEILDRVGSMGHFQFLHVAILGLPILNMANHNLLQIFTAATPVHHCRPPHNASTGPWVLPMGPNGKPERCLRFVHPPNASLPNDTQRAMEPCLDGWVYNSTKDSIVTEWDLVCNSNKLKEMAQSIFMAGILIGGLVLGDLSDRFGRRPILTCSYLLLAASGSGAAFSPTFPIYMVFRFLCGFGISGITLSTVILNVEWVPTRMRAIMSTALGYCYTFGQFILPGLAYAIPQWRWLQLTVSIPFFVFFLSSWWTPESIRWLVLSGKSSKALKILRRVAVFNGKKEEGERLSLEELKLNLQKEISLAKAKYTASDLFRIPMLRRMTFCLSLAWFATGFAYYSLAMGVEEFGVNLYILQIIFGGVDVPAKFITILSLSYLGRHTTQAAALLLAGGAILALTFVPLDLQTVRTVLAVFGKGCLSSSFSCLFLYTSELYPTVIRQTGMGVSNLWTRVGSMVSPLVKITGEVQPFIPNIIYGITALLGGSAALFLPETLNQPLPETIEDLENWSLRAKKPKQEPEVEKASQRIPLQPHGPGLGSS
# assay_overview: OAT3-mediated estrone-3-sulfate uptake in HEK293-OAT3 cells
readout_kind: Ki (µM)
Numbers only here, please. The scale is µM.

What value of Ki has been reported for the following compound? CCCCCn1nc(C(=O)N[C@H](C(N)=O)C(C)C)c2ccccc21 8.3

====

# target_under_test: CYP2C9 (Homo sapiens, UniProt P11712)
# Sequence (P11712 whole entry): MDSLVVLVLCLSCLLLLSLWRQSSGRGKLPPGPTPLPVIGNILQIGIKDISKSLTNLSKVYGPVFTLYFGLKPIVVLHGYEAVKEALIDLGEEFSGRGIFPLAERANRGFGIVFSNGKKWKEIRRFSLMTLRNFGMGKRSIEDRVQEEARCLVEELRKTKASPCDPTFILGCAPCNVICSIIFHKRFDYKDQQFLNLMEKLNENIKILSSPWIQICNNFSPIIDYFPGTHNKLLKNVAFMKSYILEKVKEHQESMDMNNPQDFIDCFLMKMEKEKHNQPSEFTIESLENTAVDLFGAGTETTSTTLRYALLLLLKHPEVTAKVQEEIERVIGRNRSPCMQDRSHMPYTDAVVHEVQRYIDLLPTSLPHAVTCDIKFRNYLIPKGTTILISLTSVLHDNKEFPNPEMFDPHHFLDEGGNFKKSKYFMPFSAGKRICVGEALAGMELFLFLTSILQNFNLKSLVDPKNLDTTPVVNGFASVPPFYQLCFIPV
readout_kind: pKi
To interpret pKi, take it as minus log10 of a concentration measured in moles per litre.

Form field - read-out: pKi; system: CYP2C9 (Homo sapiens, UniProt P11712); submitted item: CCCCCn1nc(C(=O)N[C@H](C(N)=O)C(C)C)c2ccccc21 4.79

====

# target_under_test: UniProt:P08684
# assay_overview: CYP3A4 midazolam 1'-hydroxylase inhibition and inactivation kinetics in ultrapooled human liver microsomes
# conditions_used: human, liver microsomes, pH 7.4, probe midazolam
readout_kind: IC50 shift at 15 min
Lab note: record just the number, no unit beside it.

Form field - read-out: IC50 shift at 15 min; system: UniProt:P08684; submitted item: CCCCCn1nc(C(=O)N[C@H](C(N)=O)C(C)C)c2ccccc21 2.7

====

# target_under_test: UniProtKB P11712
# assay_overview: CYP2C9 diclofenac 4'-hydroxylase inhibition in ultrapooled human liver microsomes
# conditions_used: human, liver microsomes, pH 7.4, probe diclofenac
readout_kind: IC50 shift at 15 min
Lab note: record just the number, no unit beside it.

What value of IC50 shift at 15 min has been reported for the following compound? CCCCCn1nc(C(=O)N[C@H](C(N)=O)C(C)C)c2ccccc21 0.9

====

# target_under_test: UGT1A6 (Homo sapiens, UniProt P19224)
# Sequence (P19224 27-532): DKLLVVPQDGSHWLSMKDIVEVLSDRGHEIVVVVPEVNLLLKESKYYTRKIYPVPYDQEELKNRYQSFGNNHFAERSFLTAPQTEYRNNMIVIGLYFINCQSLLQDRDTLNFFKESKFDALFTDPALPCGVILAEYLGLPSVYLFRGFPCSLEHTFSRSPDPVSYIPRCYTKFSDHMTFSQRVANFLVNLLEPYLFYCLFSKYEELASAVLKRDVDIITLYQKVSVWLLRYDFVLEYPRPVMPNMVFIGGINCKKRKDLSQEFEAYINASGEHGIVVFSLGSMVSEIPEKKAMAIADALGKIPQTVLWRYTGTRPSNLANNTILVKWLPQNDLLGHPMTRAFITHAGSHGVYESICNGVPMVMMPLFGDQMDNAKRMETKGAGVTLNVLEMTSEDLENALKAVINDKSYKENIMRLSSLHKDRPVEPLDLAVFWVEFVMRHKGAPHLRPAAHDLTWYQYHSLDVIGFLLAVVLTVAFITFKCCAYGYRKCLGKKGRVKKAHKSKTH
readout_kind: IC50 (µM)
Numbers only here, please. The scale is µM.

What value of IC50 has been reported for the following molecule? CCCCCn1nc(C(=O)N[C@H](C(N)=O)C(C)C)c2ccccc21 94
